src = PubChem BioAssay (Tox21)

Target: Cytochrome P450 1A2 (Homo sapiens) (UniProt P05177)
Sequence (P05177 whole entry, looked up): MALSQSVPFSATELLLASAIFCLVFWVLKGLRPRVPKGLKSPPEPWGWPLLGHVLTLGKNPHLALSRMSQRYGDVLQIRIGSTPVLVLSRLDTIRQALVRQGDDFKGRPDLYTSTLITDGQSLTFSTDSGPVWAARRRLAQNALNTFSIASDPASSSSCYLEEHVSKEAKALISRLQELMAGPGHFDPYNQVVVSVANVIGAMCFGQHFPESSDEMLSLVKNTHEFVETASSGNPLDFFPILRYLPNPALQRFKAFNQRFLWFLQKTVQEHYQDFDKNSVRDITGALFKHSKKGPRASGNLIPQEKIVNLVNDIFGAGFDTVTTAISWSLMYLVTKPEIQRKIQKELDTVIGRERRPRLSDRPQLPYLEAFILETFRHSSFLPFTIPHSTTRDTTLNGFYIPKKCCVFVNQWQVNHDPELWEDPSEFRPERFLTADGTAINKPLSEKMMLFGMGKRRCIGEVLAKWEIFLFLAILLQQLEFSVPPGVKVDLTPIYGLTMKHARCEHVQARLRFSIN
Assay: Cytochrome P450 Family 1 Subfamily A Member 2 (CYP1A2) small molecule antagonists: luciferase reporter qHTS assay (AID 1671199); also: nearly all actives have a fitted effect of over 50% in size
Details: P450-Glo CYP1A2 enzyme, luciferin luminescence, 1 h; series mostly up to 115 µM
Records with an inconclusive call do not appear. The source made the active and inactive calls. Calls follow the shape of the dose curve; as a rule, active = well fitted inhibition curve with a large enough effect in the repeat runs; inconclusive = weak or mixed curves; inactive = no such curve, though single readings can be large or run the other way.
Outcomes: class 1 (active), class 0 (inactive)

>>> print(df.to_string())
                                   compound  assigned_category
0  CC(C)(C)NC(=O)[C@H]1CC[C@H]2[C@@H]3CC[C@H]4NC(=O)C=C[C@]4(C)[C@H]3CC[C@]12C            class 0
1  CC(=O)O[C@]1(C(C)=O)CC[C@H]2[C@@H]3C=C(Cl)C4=CC(=O)[C@@H]5C[C@@H]5[C@]4(C)[C@H]3CC[C@@]21C            class 0
2                  Clc1nc(Cl)c(Cl)c(Cl)c1Cl            class 0
3          O=c1oc(=O)c2cc3c(=O)oc(=O)c3cc12            class 0
4  CC1=CCC(C(C)(C)O)CC1 (configuration not stated)            class 0
5  CN1C(C(=O)Nc2ccccn2)=C(O)c2ccccc2S1(=O)=O            class 0
6  COc1cc([C@@H]2c3cc4c(cc3[C@H](O)[C@H]3COC(=O)[C@H]23)OCO4)cc(OC)c1OC            class 1
